Ref: PubChem BioAssay AID248

Tested on: L1210 leukemia ip in BDF1 mice, survival T/C
Protocol details: NCI In Vivo Anticancer Drug Screen. Data for tumor model L1210 Leukemia (intraperitoneal) in B6D2F1 (BDF1) mice
Condition notes: endpoint: mean survival time; dose: 400.0 mg/kg/injection; schedule: Q01DX009 (ip); vehicle: saline with Tween-80; higher = longer survival
Inconclusive results and toxic doses are left out.
Experimental endpoint: T/C

Input: Entry O=[N+]([O-])c1cccc(OCCOc2ccccc2)c1 : reported T/C = ?
Output: 102 % of control

Input: Please do the same for CC1CN=C(c2ccc3ccccc3c2O)S1 (stereo not drawn) as well.
Output: 94 % of control

Input: Please do the same for CC1CCC=C2C(=O)C3OC(C)(C)C(C3O)C21C (stereo not drawn) as well.
Output: 93 % of control

---

Tested on: L1210 leukemia ip in BDF1 mice, survival T/C
Protocol details: NCI In Vivo Anticancer Drug Screen. Data for tumor model L1210 Leukemia (intraperitoneal) in B6D2F1 (BDF1) mice
Condition notes: endpoint: mean survival time; dose: 200.0 mg/kg/injection; schedule: Q04DX003 (ip); vehicle: saline sonified; higher = longer survival
Inconclusive results and toxic doses are left out.
Experimental endpoint: T/C

Input: Item: O=C(Nc1ccc(C(=O)O)c(O)c1)c1ccccc1 Test system: L1210 leukemia ip in BDF1 mice, survival T/C Read-out: T/C Value: ?
Output: 101 % of control

Input: Please do the same for CN1C(c2ccc(Cl)cc2)OCC1(C)C (centres undefined) as well.
Output: 92 % of control

Input: Please do the same for CC(=O)Nc1cccc(Cl)c1C as well.
Output: 95 % of control

Input: Please do the same for O=C(COc1ccc(Cl)cc1)C1CSc2ccc3ccccc3c21 (centres undefined) as well.
Output: 89 % of control

---

Give T/C for every item shown.
System: L1210 leukemia ip in BDF1 mice, survival T/C
Protocol details: NCI In Vivo Anticancer Drug Screen. Data for tumor model L1210 Leukemia (intraperitoneal) in B6D2F1 (BDF1) mice
Condition notes: endpoint: mean survival time; dose: 75.0 mg/kg/injection; schedule: Q01DX009 (ip); vehicle: Klucel (hydroxypropylcellulose) (HPC); higher = longer survival
Inconclusive results and toxic doses are left out.

Input: Item: Cc1cccc(C)c1NC(=O)NC/C(Br)=C/Br Test system: L1210 leukemia ip in BDF1 mice, survival T/C Read-out: T/C Value: ?
Output: 100 % of control

Input: Please do the same for Cc1c2ccncc2cc2c3ccccc3n(CC3CO3)c12 (configuration not stated) as well.
Output: 96 % of control

Input: Please do the same for O=C(Nc1ccccc1Br)c1ccc(Cl)cc1Cl as well.
Output: 96 % of control

Input: Please do the same for CCn1cnc2c(SC)nc(N)nc21 as well.
Output: 103 % of control

Input: Please do the same for c1ccc(CCNc2ccc(NCCc3ccccc3)cc2)cc1 as well.
Output: 97 % of control

Input: Please do the same for COc1cc(C(=O)O)c(C(=O)O)cc1OC as well.
Output: 97 % of control

Input: Please do the same for O=COCCN(C=O)c1ccc(C(=O)O)cc1 as well.
Output: 92 % of control

---

Test system: L1210 leukemia ip in BDF1 mice, survival T/C
Protocol details: NCI In Vivo Anticancer Drug Screen. Data for tumor model L1210 Leukemia (intraperitoneal) in B6D2F1 (BDF1) mice
Condition notes: endpoint: mean survival time; dose: 100.0 mg/kg/injection; schedule: Q04DX002 (ip); vehicle: Klucel (hydroxypropylcellulose) (HPC); higher = longer survival
Toxic doses and inconclusive results are not listed.
Experimental endpoint: T/C

Input: Entry C1=NC(c2ccccc2)=CN(C2CCCC2)C1(c1ccccc1)C1CCCC1 (stereo not given) : reported T/C = ?
Output: 98 % of control

Input: Please do the same for CCN(CC#CCOc1ccc(Cl)cc1)c1ccccc1 as well.
Output: 93 % of control

Input: Please do the same for CCCP(=S)(CCC)P(=S)(CCC)CCC as well.
Output: 100 % of control

Input: Please do the same for COc1ccc(C(CC(=O)c2ccc(C)cc2)Sc2ccccc2N)cc1 (stereo not given) as well.
Output: 98 % of control

Input: Please do the same for COc1cc(C(=O)Nc2ccccc2SC)cc(OC)c1OC as well.
Output: 100 % of control

Input: Please do the same for COC(=O)C1C(O)C(C)C(O)C(C)/C=C\C=C(C)C(=O)Nc2c(C)c(OC(C)=O)c3c(c2O)C(=O)C(C)=C2OCOC(=C23)C(C)=CC(C)(O)C(O)C(C)C1O (stereo not given) as well.
Output: 104 % of control

Input: Please do the same for C[N+]1(C)CCS(=O)(=O)CC1 as well.
Output: 104 % of control

Input: Please do the same for N/C(=N\[N+](=O)[O-])Nc1ccccn1 as well.
Output: 95 % of control

Input: Please do the same for CCNc1nc(Cl)nc(C(Cl)(Cl)Cl)c1Cl (tested in a mixture with another compound) as well.
Output: 104 % of control

Input: Please do the same for O=C(Nc1cccc(C(F)(F)F)c1)Nc1nccs1 as well.
Output: 94 % of control

---

System: L1210 leukemia ip in BDF1 mice, survival T/C
Protocol details: NCI In Vivo Anticancer Drug Screen. Data for tumor model L1210 Leukemia (intraperitoneal) in B6D2F1 (BDF1) mice
Condition notes: endpoint: mean survival time; dose: 400.0 mg/kg/injection; schedule: Q01DX001 (ip); vehicle: Klucel (hydroxypropylcellulose) (HPC); higher = longer survival
Toxic doses and inconclusive results are not listed.
Give T/C for every item shown.

Input: Entry CCCCSP(=S)(SCCCC)SCCCC : reported T/C = ?
Output: 97 % of control

Input: Please do the same for O=C(c1ccc([N+](=O)[O-])cc1)c1ccn[nH]1 as well.
Output: 94 % of control

Input: Please do the same for CN1CN(c2ccccc2)C2(CCN(Cc3nc4ccc(Cl)cc4[nH]3)CC2)C1=O as well.
Output: 91 % of control

Input: Please do the same for CN(C)C=Nc1ccc(Cl)c2ccccc12 as well.
Output: 97 % of control

Input: Please do the same for CCCCCCCCCCCCCCCCCC(=O)OCC1(COC(=O)CCCCCCCCCCCCCCCCC)COC(CCCCCCCCCCCCCCCCC)=N1 as well.
Output: 109 % of control

Input: Please do the same for COC(OC)c1[nH]c(=S)[nH]c(=O)c1Cc1cccc2ccccc12 as well.
Output: 96 % of control

Input: Please do the same for CCCCSP(=O)(SCCCC)c1ccccc1 as well.
Output: 95 % of control

Input: Please do the same for CC12OC1(C)C1(CO1)C1(C)OC1(C)C2=O (stereo not drawn) as well.
Output: 87 % of control

Input: Please do the same for CN(C)C1=CC(=O)C(N(C)C)=CC1=O as well.
Output: 105 % of control

Input: Please do the same for Nc1ccc(OCc2nc(N)nc(N)c2-c2ccc(Cl)cc2)cc1 as well.
Output: 96 % of control

Input: Please do the same for COC(=O)C1CCC(NC(=O)NCCCl)CC1 (stereo not drawn) as well.
Output: 95 % of control

Input: Please do the same for O=C(CNC(=O)C1CCCN1Sc1ccc([N+](=O)[O-])cc1[N+](=O)[O-])NCC(=O)OCc1ccccc1 (stereo not drawn) as well.
Output: 98 % of control

Input: Please do the same for NC(=O)/C(=C\c1ccc([N+](=O)[O-])o1)c1ccccc1 as well.
Output: 96 % of control

---

System: L1210 leukemia ip in BDF1 mice, survival T/C
Protocol details: NCI In Vivo Anticancer Drug Screen. Data for tumor model L1210 Leukemia (intraperitoneal) in B6D2F1 (BDF1) mice
Condition notes: endpoint: mean survival time; dose: 100.0 mg/kg/injection; schedule: Q01DX009 (ip); vehicle: acetone; higher = longer survival
Inconclusive results and toxic doses are left out.
Experimental endpoint: T/C

Input: Entry O=S1(=O)C(Cl)=C(Cl)C2C3CC(C(Cl)C3Cl)C21 (stereo not given) : reported T/C = ?
Output: 93 % of control

Input: Please do the same for CC1CCC(C)OCO1 (stereo not given) as well.
Output: 98 % of control

Input: Please do the same for C=CC1C(OCC)(OCC)CS1(=O)=O (stereo not given) as well.
Output: 106 % of control

Input: Please do the same for c1ccc(OC2COC(Oc3ccccc3)CO2)cc1 (stereo not given) as well.
Output: 97 % of control

Input: Please do the same for CC(=O)Nc1c(Cl)c(Cl)c2c(c1Cl)Cc1cc(Cl)ccc1-2 as well.
Output: 90 % of control

---

Give T/C for every item shown.
Tested on: L1210 leukemia ip in BDF1 mice, survival T/C
Protocol details: NCI In Vivo Anticancer Drug Screen. Data for tumor model L1210 Leukemia (intraperitoneal) in B6D2F1 (BDF1) mice
Condition notes: endpoint: mean survival time; dose: 50.0 mg/kg/injection; schedule: Q04DX002 (ip); vehicle: Klucel (hydroxypropylcellulose) (HPC); higher = longer survival
Protocol: The antitumor activity of compounds was measured in mice bearing transplantable tumors. Survival or tumor size were measured and the results are expressed as the measurement made in the treated group (T) divided by the measurement made in the vehicle treated control group (C). The tumor model used in this assay is L1210 Leukemia (intraperitoneal) in B6D2F1 (BDF1) mice
Inconclusive results and toxic doses are left out. Peptide text beside a SMILES is read from it.

Input: Item: CCN(CC)Cc1ccccc1COC(=O)c1cccc(Br)c1 Test system: L1210 leukemia ip in BDF1 mice, survival T/C Read-out: T/C Value: ?
Output: 111 % of control

Input: Please do the same for NNC(=O)CNc1ccc(Cl)cc1 as well.
Output: 106 % of control

Input: Please do the same for COC1OC2COCOC2C(OC(C)=O)C1OC(C)=O (stereo not given) as well.
Output: 104 % of control

Input: Please do the same for COc1cc(Cn2cccc2/C=N/NC(N)=S)c([N+](=O)[O-])cc1OC as well.
Output: 104 % of control

Input: Please do the same for CCCCN(CCCl)C1c2ccccc2-c2ccccc21 as well.
Output: 95 % of control

Input: Please do the same for NC(CSS(=O)(=O)O)=NCCSc1ccccc1 as well.
Output: 106 % of control

Input: Please do the same for CCOC(=O)/C(C#N)=C/c1cccn1Cc1cc2c(cc1[N+](=O)[O-])OCO2 as well.
Output: 100 % of control

Input: Please do the same for NC(=O)C(CCCN=C(N)N)NC(=O)CNC(=O)C(N)CO (stereo not drawn) (H-Ser-Gly-Arg-NH2; configuration not given here) as well.
Output: 106 % of control

Input: Please do the same for N=C(N)SCc1ccc(Cl)cc1N as well.
Output: 102 % of control

Input: Please do the same for Cc1cc(C)c2c(c1)CC2=O as well.
Output: 96 % of control
